Target: Nucleic Acid
Experiment: Concentration required for the inhibition of HIV- 1 Tat-derived peptide binding to TAR RNA.
Type: nucleic-acid assay
READOUT LABEL: IC50 (µM)
Just the number please, in µM, no unit attached.

Could you share what IC50 was measured for GENTAMICIN , tested on Nucleic Acid?
45
